Listing of entries alongside the reported Kd.
# measured on: T1, EsCas13d, nuclease-dead (Eubacterium siraeum, UniProt B0MS50, R295A;H300A;R849A;H854A)
# T1 sequence: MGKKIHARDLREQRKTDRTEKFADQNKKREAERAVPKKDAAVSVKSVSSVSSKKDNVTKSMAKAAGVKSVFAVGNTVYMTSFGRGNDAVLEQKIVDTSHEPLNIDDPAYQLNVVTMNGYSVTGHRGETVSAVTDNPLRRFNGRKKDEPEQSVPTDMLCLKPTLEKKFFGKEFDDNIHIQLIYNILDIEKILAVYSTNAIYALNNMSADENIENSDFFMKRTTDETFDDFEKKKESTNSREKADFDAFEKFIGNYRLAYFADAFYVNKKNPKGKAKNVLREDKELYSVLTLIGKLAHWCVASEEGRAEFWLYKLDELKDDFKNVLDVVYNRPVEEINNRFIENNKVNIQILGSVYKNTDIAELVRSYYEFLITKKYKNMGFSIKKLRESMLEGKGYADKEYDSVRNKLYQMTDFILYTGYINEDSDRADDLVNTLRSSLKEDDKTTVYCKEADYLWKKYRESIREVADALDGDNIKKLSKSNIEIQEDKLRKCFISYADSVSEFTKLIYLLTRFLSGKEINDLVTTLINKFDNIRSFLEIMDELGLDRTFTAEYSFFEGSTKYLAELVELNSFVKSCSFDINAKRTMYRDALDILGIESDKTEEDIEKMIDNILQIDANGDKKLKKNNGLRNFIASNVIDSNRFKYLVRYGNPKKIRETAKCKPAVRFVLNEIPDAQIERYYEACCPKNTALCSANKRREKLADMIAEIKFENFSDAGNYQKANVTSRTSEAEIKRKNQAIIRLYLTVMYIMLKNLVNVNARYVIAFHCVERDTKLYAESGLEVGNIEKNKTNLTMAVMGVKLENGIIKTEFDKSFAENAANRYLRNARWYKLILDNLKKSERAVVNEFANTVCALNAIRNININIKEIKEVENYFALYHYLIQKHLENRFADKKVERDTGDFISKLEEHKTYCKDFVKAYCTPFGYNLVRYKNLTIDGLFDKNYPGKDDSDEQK
# measurement protocol: crRNA (strand 1, pre-loaded); Mg2+; 40 mM Tris-HCl pH 7.5, 150 mM NaCl, 6 mM MgCl2, 1 mM DTT, 0.1% Tween-20, 0.2 mg/ml BSA; 25 C; 10 min per concentration, then washed
# reported conditions: tags: His6-TwinStrep-SUMO cleaved; N-terminal SNAP kept (SNAP-Surface 488); label: 3' end held by stalled T7 RNA polymerase
Write down the numeric answer in nM and omit the unit.

Field: example entries. Status: answers known.
In: Given target 1 U11C (mixed) RNA 1: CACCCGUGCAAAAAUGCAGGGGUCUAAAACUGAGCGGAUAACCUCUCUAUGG RNA 2: GGGAAUGGAUCCACAUCUACGAAUUCGUACCAUAGAGAGGCUAUCCGCUCACCGAGAUCGGAAGAGCACACGU , state its recorded Kd.
Out: 8.9

In: Now consider target 2 MT 5'PFS CUU 3'PFS UCA (mixed) RNA 1: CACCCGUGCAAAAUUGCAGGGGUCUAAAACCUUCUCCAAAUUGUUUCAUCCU RNA 2: GGGAAUGGAUCCACAUCUACGAAUUCCUUAGGAUGAAACAAUUUGGAGAAGUCAAGAUCGGAAGAGCACACGU and answer again.
Out: 4.8

In: // same read-out, input: target 1 G12A,A20C (mixed) RNA 1: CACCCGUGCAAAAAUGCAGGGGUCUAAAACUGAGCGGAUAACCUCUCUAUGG RNA 2: GGGAAUGGAUCCACAUCUACGAAUUCGUACCCUAGAGAGAUUAUCCGCUCACCGAGAUCGGAAGAGCACACGU
Out: 42

Okay, now this binder:
In: Please report the recorded Kd for target 1 insU 3' of 20,insA 3' of 13 (mixed) RNA 1: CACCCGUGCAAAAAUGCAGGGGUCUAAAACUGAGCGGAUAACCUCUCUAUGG RNA 2: GGGAAUGGAUCCACAUCUACGAAUUCGUACCAUUAGAGAGAGUUAUCCGCUCACCGAGAUCGGAAGAGCACACGU .
Out: 8.4
